Reference for the values: PubChem BioAssay (NCATS)

target: Thyroid hormone receptor beta (Homo sapiens) (UniProt P10828); test: qHTS assay for small molecule antagonists of thyroid hormone receptor beta signaling (AID 588547); settings: TR-UAS-bla HEK293, beta-lactamase ratio, antagonist mode, 18 h;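 further: cells stimulated with 0.4 nM T3 agonist during compound exposure; on the % scale 0 is the no-effect control and ±100 the full control effect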
Sequence (P10828 whole entry, looked up): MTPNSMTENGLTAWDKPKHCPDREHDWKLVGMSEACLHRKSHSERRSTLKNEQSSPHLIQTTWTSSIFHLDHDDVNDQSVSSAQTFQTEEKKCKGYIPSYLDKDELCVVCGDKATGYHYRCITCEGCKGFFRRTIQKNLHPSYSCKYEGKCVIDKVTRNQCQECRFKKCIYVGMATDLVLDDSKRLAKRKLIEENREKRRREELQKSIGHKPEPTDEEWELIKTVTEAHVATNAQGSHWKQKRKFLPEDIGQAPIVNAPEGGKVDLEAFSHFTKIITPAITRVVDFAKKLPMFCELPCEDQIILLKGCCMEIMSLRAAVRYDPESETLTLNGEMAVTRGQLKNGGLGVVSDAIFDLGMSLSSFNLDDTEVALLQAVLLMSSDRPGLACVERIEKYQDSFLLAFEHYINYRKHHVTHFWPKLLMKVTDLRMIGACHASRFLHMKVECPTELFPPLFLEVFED
Records with an inconclusive call do not appear. Calls of active or inactive are those of the source. The call rests on the fitted dose curve; in most records, active means well fitted inhibition curve with a large enough effect in the signal ratio, with a control signal flat (not every such curve was filed as active); inconclusive means small, poorly fitted or top-dose-only effect, or effect the other way, or a change in a side signal; inactive means flat fitted curve, though single readings scatter; the % refers to the signal ratio.
Kindly state activity change % (negative = inhibition) for each of the entries shown.

Form field activity change % (negative = inhibition), entry O=c1[nH]cnc2[nH]ncc12 : 5.35% (inactive)

Form field activity change % (negative = inhibition), entry NC[C@H](O)c1ccc(O)c(O)c1 : 13.6% (inactive)

Form field activity change % (negative = inhibition), entry Cn1cnc([N+](=O)[O-])c1Sc1ncnc2nc[nH]c12 : 18.7% (inactive)

Form field activity change % (negative = inhibition), entry Cc1[nH]c(=O)c(C#N)cc1-c1ccncc1 : -2.81% (inactive)

Form field activity change % (negative = inhibition), entry COc1ccc2nc(S(=O)Cc3ncc(C)c(OC)c3C)[nH]c2c1 (stereo unspecified) : -6.03% (inactive)

Form field activity change % (negative = inhibition), entry CNC[C@H](O)c1cccc(O)c1 : 16.7% (inactive)

* * *

test system: KB-3-1; assay: Cytotoxic Profiling of Annotated Libraries Using Quantitative High-Throughput Screening (AID 1296008); conditions: Five cell lines viability, CellTiter-Glo ATP luminescence, 48-72 h; hits give low values; further: on the % scale 0 is the no-effect control and ±100 the full control effect; nearly all actives have a fitted effect of over 60% in size
Results filed as inconclusive are left out.
observation type: max response (%)
Kindly provide the numeric value in % only, without the unit symbol.

Form field max response, entry Cc1ccccc1C(C(=O)NC1CCCC1)N(C(=O)Cn1cnc2ccccc21)c1cccc(F)c1 (centres undefined) : 7.7

Form field max response, entry CCOc1ccc(Cc2cc([C@@H]3O[C@H](CO)[C@@H](O)[C@H](O)[C@@H]3O)ccc2Cl)cc1 : 6.49

Form field max response, entry Nc1nccc(-c2ccc3noc(-c4ccc(Cl)cc4)c3c2)n1 : 5.59

Form field max response, entry Cc1c(CCOc2ccc(C(=O)O)cc2)c2cc(Cl)ccc2n1C(c1ccccc1)c1ccccc1 : -12.2

Form field max response, entry COc1ccc(CC2=NN3C([C@@H](CCc4ccccc4)[C@@H](C)O)=NC(C)C3C(=O)N2)cc1OC (some centres undefined) : 9.1

Form field max response, entry CCCc1nn(C)c2c(=O)[nH]c(-c3cc(S(=O)(=O)N4CCN(C)CC4)ccc3OCC)nc12 : 4.32

Form field max response, entry CC(C)(Sc1ccc(CCN(CCCCC2CCCCC2)C(=O)NC2CCCCC2)cc1)C(=O)O : 5.99

Form field max response, entry CCOc1cc(C=C2C(=O)N(c3ccccc3)N=C2C)cc(Cl)c1OCC(=O)OC : 4.4

Form field max response, entry CN(C(=O)c1ccc(F)cc1C(F)(F)F)C1CCN(c2nnc(-c3ccnn3C)c3ccccc23)CC1 : -19.8

* * *

Assay: Quantitative High-Throughput drug screen in 47 multiple myeloma cell lines against the NCATS MIPE library collection: INA6_PLB cell viability assay (AID 1918965; further: nearly all actives have a fitted effect of over 55% in size)
Settings: INA6 myeloma viability, CellTiter-Glo ATP luminescence, 48 h; series mostly up to 45.8 µM
Source text: PI: Beverly A. Mock Ph.D. Laboratory of Cancer Biology and Genetics, Center for Cancer Research, National Cancer Institute, National Institute of Health, Bethesda, Maryland […] 5; Detector; 425V; Luminescence; Viewlux PerkinElmer. […] 1. […] Briefly, the corresponding myeloma cell lines were screened in 1,536-well plates with 500 cells, 5-uL per well for inhibition of cell viability (assessed by measuring ATP levels with CellTiterGlo). […]
Records with an inconclusive call do not appear. Activity calls are given as the source filed them. The call rests on the fitted dose curve; in most records, active means well fitted cell-killing curve with a large enough effect; inconclusive means small, poorly fitted or top-dose-only effect, or effect the other way; inactive means no such curve, though single readings can be large or run the other way.
# output must be one of 1 = active, 0 = inactive

Request: Per the records of this test, what outcome belongs to Fc1ccc(Cl)cc1-c1nc(Nc2ccncc2)c2nccnc2n1 ?
Result: 1

Request: Per the records of this test, what outcome belongs to CCCCNc1cc(C(=O)O)cc(S(N)(=O)=O)c1Oc1ccccc1 ?
Result: 0

Request: Per the records of this test, what outcome belongs to COc1ccccc1[C@H](c1cccc2ccccc12)[C@@](C)(C#N)C(=O)N1CCC(c2cccc(C(F)(F)F)c2)CC1 ?
Result: 1

Request: Per the records of this test, what outcome belongs to CCOc1cc(C(=O)Nc2ccc(Cl)c(-c3nc4ccccc4[nH]3)c2)cc(OCC)c1OCC ?
Result: 1

Request: Per the records of this test, what outcome belongs to COc1nc(-c2ccc3c(c2)OCO3)n(-c2ccc(NC(=O)CSc3ccccc3)cc2)n1 ?
Result: 0

Request: Per the records of this test, what outcome belongs to CN(C)c1ccc(Nc2nc(N)n(C(=O)c3c(F)cccc3F)n2)cc1 ?
Result: 1

Request: Per the records of this test, what outcome belongs to CC(C)C[C@H](NC(=O)[C@@H](O)[C@H](N)Cc1ccccc1)C(=O)O ?
Result: 1

Request: Per the records of this test, what outcome belongs to Cc1cc(-c2ccc(CC(=O)Nc3ccc(-c4cccnc4)cc3)cc2)ccn1 ?
Result: 1

Request: Per the records of this test, what outcome belongs to C[C@@H]1CN(Cc2ccc(F)cc2)[C@@H](C)CN1C(=O)c1cc2c(C(=O)C(=O)N(C)C)cn(C)c2cc1Cl ?
Result: 1

Request: Per the records of this test, what outcome belongs to CCOC(=O)C1=C[C@]2(CC)CCCN3CCc4c(n1c1ccccc41)[C@@H]32 ?
Result: 1

Request: Per the records of this test, what outcome belongs to Nc1nc2ccc(OC(F)(F)F)cc2s1 ?
Result: 0

Request: Per the records of this test, what outcome belongs to O=S(=O)(N=Cc1c(O)ccc2ccccc12)c1cccs1 ?
Result: 1

Request: Per the records of this test, what outcome belongs to Cc1c(CN2CCN(C(=O)C(C)C)CC2)sc2c(N3CCOCC3)nc(-c3cnc(N)nc3)nc12 ?
Result: 1

Request: Per the records of this test, what outcome belongs to CCC(C)(C)C(=O)O[C@H]1C[C@@H](C)C=C2C=C[C@H](C)[C@H](CC[C@@H]3C[C@@H](O)CC(=O)O3)[C@H]21 ?
Result: 1

Request: Per the records of this test, what outcome belongs to OCCC#Cc1nc(-c2ccc(F)cc2)c(-c2ccncc2)n1CCCc1ccccc1 ?
Result: 1

Request: Per the records of this test, what outcome belongs to CS(=O)(=O)c1ccc(C(=O)Nc2ccc(Cl)c(-c3ccccn3)c2)c(Cl)c1 ?
Result: 1

Request: Per the records of this test, what outcome belongs to NC(=O)c1cnccn1 ?
Result: 0

Request: Per the records of this test, what outcome belongs to O=C(O)[C@@H](c1ccc(OCc2ccc3ccccc3n2)cc1)C1CCCC1 ?
Result: 0

Request: Per the records of this test, what outcome belongs to COc1cc(F)c(F)c(Nc2ccc(I)cc2F)c1NS(=O)(=O)C1(C[C@H](O)CO)CC1 ?
Result: 0

Request: Per the records of this test, what outcome belongs to CC(C[N+](C)(C)C)OC(N)=O (stereo not given) ?
Result: 0

* * *

experiment: qHTS of pediatric cancer cell lines to identify multiple opportunities for drug repurposing: Primary screen for SK-N-MC cells (AID 1347093); conditions: SK-N-MC viability, CellTiter-Glo luminescence, 48 h; series mostly up to 46 µM; further: potency means the concentration at half of the fitted maximal effect
Inconclusive results are not listed. The source made the active and inactive calls. Calls come from the whole dose curve; as a rule, active = well fitted cell-killing curve with a large enough effect; inconclusive = small, poorly fitted or top-dose-only effect; inactive = no such curve, though single readings can be large or run the other way.
observation type: Potency

Recorded results for 8 molecules are shown here.
molecule: CNC[C@H](O)c1cccc(O)c1
Potency: inactive
//
molecule: C[C@H](NC(=O)Cc1cc(F)cc(F)c1)C(=O)N[C@@H]1C(=O)N(C)c2ccccc2-c2ccccc21
Potency: 5.26 µM (active)
//
molecule: CN(C)c1ccc(Nc2nc(N)n(C(=O)c3c(F)cccc3F)n2)cc1
Potency: 0.469 µM (active)
//
molecule: COc1ccc(CCN2CCN(CCCc3ccccc3)CC2)cc1OC
Potency: 18.7 µM (active)
//
molecule: O=c1n(CCCN2CCN(c3cccc(Cl)c3)CC2)nc2ccccn12
Potency: inactive
//
molecule: c1ccc([C@H]2CN3CCSC3=N2)cc1
Potency: inactive
//
molecule: CC(C)(C)OC(=O)CN(Cc1ccc(Cl)cc1)Cc1ccc([N+](=O)[O-])s1
Potency: 20.9 µM (active)
//
molecule: COc1ccc(-c2oc3cc(OC)ccc3c2C(=O)c2ccc(C#N)cc2)cc1
Potency: 4.18 µM (active)

Form field Potency, entry O=c1[nH]c(-c2ccc(C(F)(F)F)cc2)nc2c1CSCC2 : 13.2 µM (active)

Form field Potency, entry S=C(NCc1ccc2c(c1)OCO2)N1CCN(c2ncnc3c2oc2ccccc23)CC1 : 4.29 µM (active)

* * *

tested on: CP192; experiment: qHTS profiling for inhibitors of Plasmodium falciparum proliferation (AID 504749);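 further: 0% = DMSO vehicle and full inhibition = artemisinin control; nearly all actives have a fitted effect of over 60% in size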; details: P. falciparum in erythrocytes, SYBR Green DNA, 72 h; series mostly up to 28.7 µM
Records with an inconclusive call do not appear. Activity calls are given as the source filed them. The call rests on the fitted dose curve; in most records, active means well fitted inhibition curve with a large enough effect; inconclusive means small, poorly fitted or top-dose-only effect; inactive means flat fitted curve, though single readings scatter.
observation type: outcome

Recorded results for 5 compounds are shown here.
compound: Cc1ccccc1C(OCCN(C)C)c1ccccc1 (stereo not drawn)
outcome: inactive
--
compound: Cn1cnc([N+](=O)[O-])c1Sc1ncnc2nc[nH]c12
outcome: inactive
--
compound: CC(c1cc2ccccc2s1)N(O)C(N)=O (stereo not drawn)
outcome: inactive
--
compound: Cc1oncc1C(=O)Nc1ccc(C(F)(F)F)cc1
outcome: inactive
--
compound: Clc1cccc(Cl)c1NC1=NCCN1
outcome: inactive

Form field outcome, entry O=NN(CCCl)C(=O)NCCCl : inactive

Form field outcome, entry C1COC(NC(C2CC2)C2CC2)=N1 : inactive

Form field outcome, entry Clc1ccc(Nc2nnc(Cc3ccncc3)c3ccccc23)cc1 : inactive
